Reference source for all entries: paper PMC12621043

- tested_system: NEK7A (Homo sapiens, UniProt Q8TDX7)
- Construct: purchased in-house DSF kinase panel (SGC-style construct names; the trailing letter is the construct ID)
- Sequence (Q8TDX7 whole entry): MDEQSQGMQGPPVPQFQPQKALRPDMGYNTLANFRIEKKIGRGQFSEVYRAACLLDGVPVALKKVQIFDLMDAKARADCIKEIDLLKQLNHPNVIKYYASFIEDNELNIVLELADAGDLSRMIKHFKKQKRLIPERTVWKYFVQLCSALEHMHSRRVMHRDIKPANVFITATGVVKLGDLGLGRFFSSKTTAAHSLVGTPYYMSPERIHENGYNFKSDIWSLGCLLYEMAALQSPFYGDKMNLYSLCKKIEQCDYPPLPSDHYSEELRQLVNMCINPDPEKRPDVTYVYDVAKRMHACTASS
- method: DSF Tm panel
- Format: binding
- protocol_conditions: 10 μM compound
measurement_kind: ΔTm at 10 µM (°C)

[I] C[C@H](NC(=O)Nc1ccc2cc1OCCOCCNc1ccn3ncc-2c3n1)c1ccccc1 [compound 34]
[II] Cc1cc(Br)ccc1CNC(=O)Nc1ccc2cc1OCCOCCNc1ccn3ncc-2c3n1 [compound 24]
Q. Looking at recorded values for ΔTm at 10 µM, does I or II come in lower? To answer, give the label that identifies your chosen option.
A. I

[1] COc1cccc(CNC(=O)Nc2ccc3cc2OCCOCCNc2ccn4ncc-3c4n2)c1 [compound 30]
[2] COc1ccccc1CNC(=O)Nc1ccc2cc1OCCOCCNc1ccn3ncc-2c3n1 [compound 29]
Q. Looking at recorded values for ΔTm at 10 µM, does 1 or 2 come in lower? To answer, give the label that identifies your chosen option.
A. 1
(1: 1 °C, 2: 1.7 °C)

* * *

- tested_system: MELKA (Homo sapiens)
- Construct: purchased in-house DSF kinase panel (SGC-style construct names; the trailing letter is the construct ID)
- Sequence (Q14680 1-340): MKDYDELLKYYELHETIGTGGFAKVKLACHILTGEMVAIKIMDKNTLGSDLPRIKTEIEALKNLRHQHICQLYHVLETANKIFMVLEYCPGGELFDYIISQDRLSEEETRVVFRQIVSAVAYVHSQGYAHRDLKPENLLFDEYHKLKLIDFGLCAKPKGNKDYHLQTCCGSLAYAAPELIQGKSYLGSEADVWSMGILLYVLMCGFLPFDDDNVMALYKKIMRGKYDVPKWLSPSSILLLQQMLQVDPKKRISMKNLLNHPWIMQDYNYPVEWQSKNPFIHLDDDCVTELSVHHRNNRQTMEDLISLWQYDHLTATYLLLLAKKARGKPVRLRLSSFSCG
- method: DSF Tm panel
- Assay type: binding
- protocol_conditions: 10 μM compound
measurement_kind: ΔTm at 10 µM (°C)

Reference set (2 entries):
* O=C(NCc1ccc(C(F)(F)F)cc1)Nc1ccc2cc1OCCOCCNc1ccn3ncc-2c3n1 [compound 28] | 0.9
* Cc1cc(Br)ccc1CNC(=O)Nc1ccc2cc1OCCOCCNc1ccn3ncc-2c3n1 [compound 24] | 0

[A] COc1cc(CNC(=O)Nc2ccc3cc2OCCOCCNc2ccn4ncc-3c4n2)ccc1F [compound 33]
[B] COc1ccc(CNC(=O)Nc2ccc3cc2OCCOCCNc2ccn4ncc-3c4n2)cc1F [compound 32]
Q. Rank A against B by their ΔTm at 10 µM values and give the higher one. To answer, give the label that identifies your chosen option.
A. A

* * *

- tested_system: DMPK1A (Homo sapiens, UniProt Q09013)
- Construct: purchased in-house DSF kinase panel (SGC-style construct names; the trailing letter is the construct ID)
- Sequence (Q09013 whole entry): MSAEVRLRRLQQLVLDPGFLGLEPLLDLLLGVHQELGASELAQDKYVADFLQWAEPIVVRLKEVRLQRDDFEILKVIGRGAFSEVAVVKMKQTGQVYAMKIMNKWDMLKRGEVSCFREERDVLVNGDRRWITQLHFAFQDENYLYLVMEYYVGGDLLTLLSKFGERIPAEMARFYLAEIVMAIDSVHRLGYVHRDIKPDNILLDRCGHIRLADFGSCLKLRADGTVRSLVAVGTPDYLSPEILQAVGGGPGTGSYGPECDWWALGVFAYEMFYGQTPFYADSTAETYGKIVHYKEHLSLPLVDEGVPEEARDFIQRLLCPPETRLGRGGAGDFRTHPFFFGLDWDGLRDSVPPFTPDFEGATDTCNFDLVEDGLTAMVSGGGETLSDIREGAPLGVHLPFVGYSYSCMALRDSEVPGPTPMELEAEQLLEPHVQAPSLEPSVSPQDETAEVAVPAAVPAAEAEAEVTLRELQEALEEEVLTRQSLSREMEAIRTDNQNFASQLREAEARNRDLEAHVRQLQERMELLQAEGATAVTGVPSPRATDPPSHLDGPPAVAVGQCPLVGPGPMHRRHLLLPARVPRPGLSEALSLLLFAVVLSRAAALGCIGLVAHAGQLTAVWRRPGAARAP
- method: DSF Tm panel
- Format: binding
- protocol_conditions: 10 μM compound
measurement_kind: ΔTm at 10 µM (°C)

Reference set (2 entries):
* COc1cc(CNC(=O)Nc2ccc3cc2OCCOCCNc2ccn4ncc-3c4n2)ccc1F [compound 33] | 0.7
* O=C(NCc1ccc(Cl)cc1)Nc1ccc2cc1OCCOCCNc1ccn3ncc-2c3n1 [compound 19] | 0.3

[A] CN1CCN(C(=O)Nc2ccc3cc2OCCOCCNc2ccn4ncc-3c4n2)CC1 [compound 35]
[B] O=C(NCc1ccccc1Cl)Nc1ccc2cc1OCCOCCNc1ccn3ncc-2c3n1 [compound 17]
Q. Looking at recorded values for ΔTm at 10 µM, does A or B come in lower? To answer, give the label that identifies your chosen option.
A. B

[I] O=C(NCc1cccc(Cl)c1)Nc1ccc2cc1OCCOCCNc1ccn3ncc-2c3n1 [compound 18]
[II] C[C@H](NC(=O)Nc1ccc2cc1OCCOCCNc1ccn3ncc-2c3n1)c1ccccc1 [compound 34]
Q. Rank I against II by their ΔTm at 10 µM values and give the higher one. To answer, give the label that identifies your chosen option.
A. I
(I: 0.1 °C, II: 0 °C)

[a] O=C(NCc1ccc(Cl)cc1F)Nc1ccc2cc1OCCOCCNc1ccn3ncc-2c3n1 [compound 21]
[b] Cc1cc(Br)ccc1CNC(=O)Nc1ccc2cc1OCCOCCNc1ccn3ncc-2c3n1 [compound 24]
[c] COc1ccc(CNC(=O)Nc2ccc3cc2OCCOCCNc2ccn4ncc-3c4n2)cc1 [compound 31]
[d] Cc1cc(Cl)ccc1CNC(=O)Nc1ccc2cc1OCCOCCNc1ccn3ncc-2c3n1 [compound 23]
Q. Sort ascending by ΔTm at 10 µM. Note for the reader: the ranking is given by listing the labels in the order requested.
A. a, b, d, c

[A] O=C(NCc1ccccc1C(F)(F)F)Nc1ccc2cc1OCCOCCNc1ccn3ncc-2c3n1 [compound 27]
[B] COc1ccccc1CNC(=O)Nc1ccc2cc1OCCOCCNc1ccn3ncc-2c3n1 [compound 29]
Q. Rank A against B by their ΔTm at 10 µM values and give the higher one. To answer, give the label that identifies your chosen option.
A. B
(B: 0.3 °C, A: 0.2 °C)

[I] O=C(NCc1ccc(C(F)(F)F)cc1)Nc1ccc2cc1OCCOCCNc1ccn3ncc-2c3n1 [compound 28]
[II] O=C(NCc1ccc(Cl)cc1Cl)Nc1ccc2cc1OCCOCCNc1ccn3ncc-2c3n1 [compound 20]
Q. Looking at recorded values for ΔTm at 10 µM, does I or II come in lower? To answer, give the label that identifies your chosen option.
A. I

* * *

- tested_system: SLK (Homo sapiens)
- method: DSF Tm panel
- Type: binding
- Parameters: purchased in-house DSF kinase panel (SGC-style construct names; the trailing letter is the construct ID)
- protocol_conditions: 10 μM compound
measurement_kind: ΔTm at 10 µM (°C)

* COc1cc(CNC(=O)Nc2ccc3cc2OCCOCCNc2ccn4ncc-3c4n2)ccc1F [compound 33] | 2.4

[a] CN1CCN(C(=O)Nc2ccc3cc2OCCOCCNc2ccn4ncc-3c4n2)CC1 [compound 35]
[b] O=C(NCc1ccc(Cl)cc1Cl)Nc1ccc2cc1OCCOCCNc1ccn3ncc-2c3n1 [compound 20]
Q. Rank a against b by their ΔTm at 10 µM values and give the higher one. To answer, give the label that identifies your chosen option.
A. b

[A] COc1ccccc1CNC(=O)Nc1ccc2cc1OCCOCCNc1ccn3ncc-2c3n1 [compound 29]
[B] C[C@H](NC(=O)Nc1ccc2cc1OCCOCCNc1ccn3ncc-2c3n1)c1ccccc1 [compound 34]
[C] Cc1cc(C(F)(F)F)ccc1CNC(=O)Nc1ccc2cc1OCCOCCNc1ccn3ncc-2c3n1 [compound 25]
Q. Ranking field: ΔTm at 10 µM; order: falling. Note for the reader: the ranking is given by listing the labels in the order requested.
A. C, A, B

* * *

- tested_system: SLK (Homo sapiens)
- method: NanoBRET target engagement assay
- protocol_conditions: HEK293T cells
pEC50: −log10 of the molar value.
Catalogue of compounds with associated pEC50

Reference set (2 entries):
• O=C(NCc1ccccc1)Nc1ccc2cc1OCCOCCNc1ccn3ncc-2c3n1 = < 4.30
• O=C(NCc1ccc(Cl)cc1Cl)Nc1ccc2cc1OCCOCCNc1ccn3ncc-2c3n1 = < 4.30

Consider O=C(NCc1cccc(Cl)c1)Nc1ccc2cc1OCCOCCNc1ccn3ncc-2c3n1 . Its measured pEC50 is < 4.30

* * *

- tested_system: EPHA5A (Homo sapiens)
- Construct: purchased in-house DSF kinase panel (SGC-style construct names; the trailing letter is the construct ID)
- Sequence (P54756 653-939): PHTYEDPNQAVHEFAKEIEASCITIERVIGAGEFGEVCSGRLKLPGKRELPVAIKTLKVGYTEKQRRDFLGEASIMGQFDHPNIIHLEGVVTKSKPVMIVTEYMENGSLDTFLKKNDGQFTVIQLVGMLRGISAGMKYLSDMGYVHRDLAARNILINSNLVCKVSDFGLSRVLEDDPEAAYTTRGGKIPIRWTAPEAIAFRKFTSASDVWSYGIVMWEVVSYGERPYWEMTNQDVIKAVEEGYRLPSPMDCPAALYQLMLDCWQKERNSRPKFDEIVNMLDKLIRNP
- method: DSF Tm panel
- Format: binding
- protocol_conditions: 10 μM compound
measurement_kind: ΔTm at 10 µM (°C)

Reference set (3 entries):
• C[C@H](NC(=O)Nc1ccc2cc1OCCOCCNc1ccn3ncc-2c3n1)c1ccccc1 = 1
• Cc1ccc(F)cc1CNC(=O)Nc1ccc2cc1OCCOCCNc1ccn3ncc-2c3n1 = 1.1
• O=C(NCc1ccc(Cl)cc1)Nc1ccc2cc1OCCOCCNc1ccn3ncc-2c3n1 = 0.3

[I] COc1cc(CNC(=O)Nc2ccc3cc2OCCOCCNc2ccn4ncc-3c4n2)ccc1F
[II] O=C(NCc1cccc(Cl)c1)Nc1ccc2cc1OCCOCCNc1ccn3ncc-2c3n1
[III] COc1cccc(CNC(=O)Nc2ccc3cc2OCCOCCNc2ccn4ncc-3c4n2)c1
[IV] CN1CCN(C(=O)Nc2ccc3cc2OCCOCCNc2ccn4ncc-3c4n2)CC1
[V] O=C(NCc1ccccc1)Nc1ccc2cc1OCCOCCNc1ccn3ncc-2c3n1
Q. Ranking field: ΔTm at 10 µM; order: falling. Note for the reader: the ranking is given by listing the labels in the order requested.
A. I, III, II, V, IV

* * *

- tested_system: OSR1A (Homo sapiens)
- Construct: purchased in-house DSF kinase panel (SGC-style construct names; the trailing letter is the construct ID)
- Sequence (O95747 17-291): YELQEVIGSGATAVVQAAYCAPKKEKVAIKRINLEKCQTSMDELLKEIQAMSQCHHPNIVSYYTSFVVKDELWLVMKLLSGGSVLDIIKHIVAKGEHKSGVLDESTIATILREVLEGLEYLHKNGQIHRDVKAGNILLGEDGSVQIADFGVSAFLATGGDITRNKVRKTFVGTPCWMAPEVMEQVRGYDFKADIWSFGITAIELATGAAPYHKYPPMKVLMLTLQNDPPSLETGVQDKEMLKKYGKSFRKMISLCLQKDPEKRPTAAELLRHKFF
- method: DSF Tm panel
- Type: binding
- protocol_conditions: 10 μM compound
measurement_kind: ΔTm at 10 µM (°C)

Reference set (3 entries):
- COc1ccc(CNC(=O)Nc2ccc3cc2OCCOCCNc2ccn4ncc-3c4n2)cc1: 1.3
- O=C(NCc1ccccc1)Nc1ccc2cc1OCCOCCNc1ccn3ncc-2c3n1: 0.5
- COc1cc(CNC(=O)Nc2ccc3cc2OCCOCCNc2ccn4ncc-3c4n2)ccc1F: 1.5

[P] COc1ccc(CNC(=O)Nc2ccc3cc2OCCOCCNc2ccn4ncc-3c4n2)cc1F
[Q] CN1CCN(C(=O)Nc2ccc3cc2OCCOCCNc2ccn4ncc-3c4n2)CC1
Q. Rank P against Q by their ΔTm at 10 µM values and give the higher one. To answer, give the label that identifies your chosen option.
A. P

[1] O=C(NCc1ccc(Cl)cc1F)Nc1ccc2cc1OCCOCCNc1ccn3ncc-2c3n1
[2] COc1ccccc1CNC(=O)Nc1ccc2cc1OCCOCCNc1ccn3ncc-2c3n1
Q. Looking at recorded values for ΔTm at 10 µM, does 1 or 2 come in lower? To answer, give the label that identifies your chosen option.
A. 2

[A] O=C(NCc1ccc(C(F)(F)F)cc1)Nc1ccc2cc1OCCOCCNc1ccn3ncc-2c3n1
[B] Cc1cc(Cl)ccc1CNC(=O)Nc1ccc2cc1OCCOCCNc1ccn3ncc-2c3n1
Q. Looking at recorded values for ΔTm at 10 µM, does A or B come in lower? To answer, give the label that identifies your chosen option.
A. B
(B: 0.8 °C, A: 2.2 °C)

[P] O=C(NCc1ccccc1C(F)(F)F)Nc1ccc2cc1OCCOCCNc1ccn3ncc-2c3n1
[Q] COc1cccc(CNC(=O)Nc2ccc3cc2OCCOCCNc2ccn4ncc-3c4n2)c1
[R] O=C(NCc1ccccc1Cl)Nc1ccc2cc1OCCOCCNc1ccn3ncc-2c3n1
Q. Ranking field: ΔTm at 10 µM; order: falling. Note for the reader: the ranking is given by listing the labels in the order requested.
A. P, Q, R
(P: 2.1 °C, Q: 1.2 °C, R: 0.7 °C)

[I] Cc1cc(Br)ccc1CNC(=O)Nc1ccc2cc1OCCOCCNc1ccn3ncc-2c3n1
[II] O=C(NCc1ccc(Cl)cc1)Nc1ccc2cc1OCCOCCNc1ccn3ncc-2c3n1
Q. Rank I against II by their ΔTm at 10 µM values and give the higher one. To answer, give the label that identifies your chosen option.
A. I
(I: 1.6 °C, II: 0.7 °C)
